- studyTarget: Polynucleotide Kinase-Phosphatase (PNKP), human, wild-type (human, UniProt Q96T60-1 1-521)
- method: FP
Square brackets hold non-standard residues; d marks the D form. Ends that are not written are not given here. pT = C[C@@H](OP(=O)(O)O)[C@H](N)C(=O)O
measuredAttribute: Kd (µM)
// units = µM; emit number, no label

Ask: Could you share which Kd value was measured for GGYDES[pT]DEESKK (also: fluorescent dye label, position not given here) [fluorescent-dye labeled XRCC4-based phosphopeptide (GGYDES-pT-DEESKK)] ?
Reply: 1.08
